The origin of these recorded values is the supplement of paper PMC8728848.

# SYSTEM: Glc(a1-4)Glc
# ASSAY REMARKS: glycan array binding signal (z-score within array); higher = stronger binding
# TEST CONDITIONS: glycan notation: IUPAC condensed, linker removed
The entries come from a sample that favours the strongest signals as a whole.
READOUT KIND: glycan array binding signal (z-score)
Please give only the number in your answer, with no unit.

Give the measured glycan array binding signal (z-score) of Gal 4 (Mus musculus), P56470 (protein) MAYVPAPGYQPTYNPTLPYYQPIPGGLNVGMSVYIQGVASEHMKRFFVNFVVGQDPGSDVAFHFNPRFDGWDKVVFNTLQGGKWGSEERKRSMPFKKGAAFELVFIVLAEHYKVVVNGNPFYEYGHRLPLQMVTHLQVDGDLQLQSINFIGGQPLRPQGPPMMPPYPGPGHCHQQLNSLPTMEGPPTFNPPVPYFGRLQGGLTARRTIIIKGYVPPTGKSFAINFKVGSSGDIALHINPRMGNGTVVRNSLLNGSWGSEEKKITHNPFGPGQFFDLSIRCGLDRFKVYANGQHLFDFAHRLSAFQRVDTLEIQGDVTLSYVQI . -0.244
